biological target: hQ23 (HEK-293 cell line stably transfected with one of the members of the KCNQ family) (Homo sapiens, UniProt O43525+O43526); construct: expressed in transfected cells; host or cells: HEK-293, stably transfected; experiment: Thallium flux assay for KCNQ channel blockers (FLIPR, BTC dye); assay type: cell-based; settings: Table 3; thallium flux, HEK-293
Sequence (O43526 whole entry): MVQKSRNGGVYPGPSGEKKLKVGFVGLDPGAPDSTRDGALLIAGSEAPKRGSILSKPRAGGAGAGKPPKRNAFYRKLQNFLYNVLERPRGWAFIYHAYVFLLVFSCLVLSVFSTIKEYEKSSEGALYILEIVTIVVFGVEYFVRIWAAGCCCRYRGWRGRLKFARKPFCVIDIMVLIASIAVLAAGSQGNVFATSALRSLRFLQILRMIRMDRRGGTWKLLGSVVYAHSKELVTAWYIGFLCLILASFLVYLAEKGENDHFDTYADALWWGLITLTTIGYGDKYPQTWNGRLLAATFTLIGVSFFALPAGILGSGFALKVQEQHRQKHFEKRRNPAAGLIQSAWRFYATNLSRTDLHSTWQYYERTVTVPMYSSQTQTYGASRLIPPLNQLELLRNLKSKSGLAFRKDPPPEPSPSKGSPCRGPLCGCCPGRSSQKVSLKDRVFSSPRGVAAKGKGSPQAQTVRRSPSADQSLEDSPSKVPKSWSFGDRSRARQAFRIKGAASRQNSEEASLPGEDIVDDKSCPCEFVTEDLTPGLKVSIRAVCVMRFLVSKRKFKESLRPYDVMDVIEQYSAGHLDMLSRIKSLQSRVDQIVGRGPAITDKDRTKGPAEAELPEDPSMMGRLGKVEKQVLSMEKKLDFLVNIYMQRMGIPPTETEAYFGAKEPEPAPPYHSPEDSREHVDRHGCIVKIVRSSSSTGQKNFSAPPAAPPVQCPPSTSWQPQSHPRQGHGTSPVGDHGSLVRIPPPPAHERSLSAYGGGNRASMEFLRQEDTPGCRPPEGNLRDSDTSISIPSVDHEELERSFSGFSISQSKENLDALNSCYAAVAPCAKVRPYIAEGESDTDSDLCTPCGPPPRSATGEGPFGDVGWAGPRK
Sequence (O43525 whole entry): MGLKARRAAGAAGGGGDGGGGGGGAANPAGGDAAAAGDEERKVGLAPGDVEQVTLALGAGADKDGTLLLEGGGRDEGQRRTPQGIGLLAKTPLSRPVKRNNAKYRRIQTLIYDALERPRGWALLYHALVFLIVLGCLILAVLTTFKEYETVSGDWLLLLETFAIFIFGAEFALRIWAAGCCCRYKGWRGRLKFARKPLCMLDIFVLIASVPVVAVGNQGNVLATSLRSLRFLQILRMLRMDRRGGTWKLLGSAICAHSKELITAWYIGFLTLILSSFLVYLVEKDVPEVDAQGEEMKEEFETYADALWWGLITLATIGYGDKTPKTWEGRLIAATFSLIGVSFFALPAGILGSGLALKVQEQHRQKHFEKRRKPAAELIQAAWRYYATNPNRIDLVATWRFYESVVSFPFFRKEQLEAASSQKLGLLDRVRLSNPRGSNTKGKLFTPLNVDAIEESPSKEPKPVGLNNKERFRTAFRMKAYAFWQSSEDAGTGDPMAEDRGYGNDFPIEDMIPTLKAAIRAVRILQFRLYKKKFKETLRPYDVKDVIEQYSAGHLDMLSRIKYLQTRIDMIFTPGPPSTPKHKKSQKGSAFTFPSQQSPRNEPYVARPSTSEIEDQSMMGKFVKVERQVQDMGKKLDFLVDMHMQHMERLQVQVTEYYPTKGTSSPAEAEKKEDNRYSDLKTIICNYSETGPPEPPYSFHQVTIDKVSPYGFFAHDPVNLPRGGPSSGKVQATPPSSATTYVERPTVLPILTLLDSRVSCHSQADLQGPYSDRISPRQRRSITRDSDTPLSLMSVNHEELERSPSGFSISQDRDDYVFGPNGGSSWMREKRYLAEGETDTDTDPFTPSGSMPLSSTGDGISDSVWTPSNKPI
pEC50: −log10 of the molar value.

{"compound": "CC1CCCN(c2ncc(C(=O)NCc3ccc(Cl)cc3Cl)c(C3(c4ccc(Cl)cc4)CCC3)n2)C1 (stereo not drawn) [Example 63]", "pEC50": 7.85}
{"compound": "CN1CCN(c2ncc(C(=O)NCc3ccc4c(c3)OCO4)c(C3(c4ccc(Cl)cc4)CCC3)n2)CC1 [Example 57]", "pEC50": 6.13}
{"compound": "CC1CCC(Nc2ncc(C(=O)NCc3ccc(F)cc3F)c(C3(c4ccc(Cl)cc4)CCC3)n2)CC1 (stereo not drawn) [Example 65]", "pEC50": 7.25}
{"compound": "CC1CCN(c2ncc(C(=O)NCc3ccc4c(c3)OCO4)c(C3(c4ccc(Cl)cc4)CCC3)n2)CC1 [Example 58]", "pEC50": 7.05}
{"compound": "CC1CCCN(c2ncc(C(=O)NCc3cc(F)cc(C(F)(F)F)c3)c(C3(c4ccc(Cl)cc4)CCC3)n2)C1 (stereo not drawn) [Example 66]", "pEC50": 8.00}
{"compound": "O=C(NCc1cccc2ccccc12)c1cnc(NC2CC2)nc1C1(c2ccc(Cl)cc2)CCC1 [Example 60]", "pEC50": 6.21}
{"compound": "O=C(NCc1ccc2c(c1)OCO2)c1cnc(N2CCCC2)nc1C1(c2ccc(Cl)cc2)CCC1 [Example 56]", "pEC50": 6.14}
{"compound": "O=C(NCc1cccc2ccccc12)c1cnc(N2CCCC2)nc1C1(c2ccc(Cl)cc2)CCC1 [Example 61]", "pEC50": 7.10}
{"compound": "CC1CCN(c2ncc(C(=O)NCc3ccc(Cl)cc3Cl)c(C3(c4ccc(Cl)cc4)CCC3)n2)CC1 [Example 64]", "pEC50": 7.47}

----------
target: hQ23 (HEK-293 cell line stably transfected with one of the members of the KCNQ family) (Homo sapiens, UniProt O43525+O43526); construct: expressed in transfected cells; host or cells: HEK-293, stably transfected; experiment: Thallium flux assay for KCNQ channel blockers (FLIPR, BTC dye); type: cell-based; settings: hQ23 cells, thallium flux
quantityKind: log10 EC50 (log10 of the value in nM)

{"compound": "CC1CCC(Nc2ncc(C(=O)NCc3ccc4c(c3)OCO4)c(C3(c4ccc(Cl)cc4)CCCC3)n2)CC1 (centres unmarked)", "quantitativeResult": 2.08}
{"compound": "CC1CCCN(c2ncc(C(=O)NCc3ccc(Cl)c(Cl)c3)c(C3(c4ccccc4)CCCC3)n2)C1 (centres unmarked)", "quantitativeResult": 2.05}
{"compound": "CN1CCN(c2ncc(C(=O)NCc3ccc(Cl)cc3Cl)c(C3(c4ccc(Cl)cc4)CCCC3)n2)CC1", "quantitativeResult": 2.73}
{"compound": "CC1CCN(c2ncc(C(=O)NCc3ccc(Cl)cc3Cl)c(C3(c4ccc(Cl)cc4)CCCC3)n2)CC1", "quantitativeResult": 1.00}
{"compound": "CCN(Cc1ccccc1)C(=O)c1cnc(N2CCC(C)CC2)nc1C1(c2ccccc2)CCCC1", "quantitativeResult": 2.52}
{"compound": "CN(CCc1ccccc1)C(=O)c1cnc(N2CCCC2)nc1C1(c2ccc(F)cc2)CCCC1", "quantitativeResult": 2.23}
{"compound": "CC1CCCN(c2ncc(C(=O)NCc3cccc4ccccc34)c(C3(c4ccccc4)CCCC3)n2)C1 (centres unmarked)", "quantitativeResult": 1.82}
{"compound": "CCN(Cc1ccccc1)C(=O)c1cnc(NC2CCCC2)nc1C1(c2ccc(Cl)cc2)CCCC1", "quantitativeResult": 2.72}

----------
target: hQ23 (HEK-293 cell line stably transfected with one of the members of the KCNQ family) (Homo sapiens, UniProt O43525+O43526); construct: expressed in transfected cells; host or cells: HEK-293, stably transfected; experiment: Thallium flux assay for KCNQ channel blockers (FLIPR, BTC dye); format: cell-based; settings: hQ23 cells, thallium flux assay
# key: entry, value: EC50

{"compound": "CC1CCC(Nc2ncc(C(=O)NCc3ccc4c(c3)OCO4)c(C3(c4ccc(F)cc4)CCCC3)n2)CC1 (centres unmarked) [Example 234]", "EC50, nM": 235}
{"compound": "CC(NC(=O)c1cnc(NC2CCCC2)nc1C1(c2ccc(F)cc2)CCCC1)c1cccc2ccccc12 (centres unmarked) [Example 247]", "EC50, nM": 92}
{"compound": "CC1CCN(c2ncc(C(=O)NCc3ccc(Cl)cc3Cl)c(C3(c4ccc(F)cc4)CCCC3)n2)CC1 [Example 263]", "EC50, nM": 17}
{"compound": "CN1CCN(c2ncc(C(=O)NCc3ccc(F)cc3F)c(C3(c4ccc(F)cc4)CCCC3)n2)CC1 [Example 268]", "EC50, nM": 634}
{"compound": "O=C(NCc1cccc2ccccc12)c1cnc(N2CCCC2)nc1C1(c2ccc(F)cc2)CCCC1 [Example 249]", "EC50, nM": 278}

----------
Quick reference: EC50 of the listed items.
Target: hQ23 (HEK-293 cell line stably transfected with one of the members of the KCNQ family) (Homo sapiens, UniProt O43525+O43526)
Construct: expressed in transfected cells; host or cells: HEK-293, stably transfected
Assay: Thallium flux assay for KCNQ channel blockers (FLIPR, BTC dye)
Format: cell-based
Details: hQ23 cells, thallium flux assay
Description: Thallium Flux Assay for KCNQ channel blockers. […] For generating IC50 values, compounds were serially diluted in 1:3 volume increments to produce a 10 point concentration series. IC50 values were calculated by fitting the resulting amplitudes to a single-site logistic equation. […]
quantityKind: EC50 (µM)

{"molecule": "CC1CCN(c2ncc(C(=O)NCc3ccc4c(c3)OCO4)c(C3(c4ccc(F)cc4)CCCC3)n2)CC1", "quantityKind": "EC50", "unitLabel": "µM", "quantitativeResult": 0.54}
{"molecule": "O=C(NCc1cccc2ccccc12)c1cnc(NC2CCCC2)nc1C1(c2ccc(F)cc2)CCCC1", "quantityKind": "EC50", "unitLabel": "µM", "quantitativeResult": 0.183}
{"molecule": "CC1CCC(Nc2ncc(C(=O)NCc3cccc4ccccc34)c(C3(c4ccc(F)cc4)CCCC3)n2)CC1 (stereo not drawn)", "quantityKind": "EC50", "unitLabel": "µM", "quantitativeResult": 0.01}
{"molecule": "CN1CCC(N(C)c2ncc(C(=O)NCc3ccc(Cl)cc3Cl)c(C3(c4ccc(F)cc4)CCCC3)n2)CC1", "quantityKind": "EC50", "unitLabel": "µM", "quantitativeResult": 0.282}
{"molecule": "CC1CCC(Nc2ncc(C(=O)NCc3cc(F)cc(C(F)(F)F)c3)c(C3(c4ccc(F)cc4)CCCC3)n2)CC1 (stereo not drawn)", "quantityKind": "EC50", "unitLabel": "µM", "quantitativeResult": 0.029}
{"molecule": "CC1CCN(c2ncc(C(=O)NCc3ccc(C(F)(F)F)cc3)c(C3(c4ccc(F)cc4)CCCC3)n2)CC1", "quantityKind": "EC50", "unitLabel": "µM", "quantitativeResult": 0.075}
{"molecule": "CC1CCCN(c2ncc(C(=O)NCc3ccc(Cl)cc3Cl)c(C3(c4ccc(F)cc4)CCCC3)n2)C1 (stereo not drawn)", "quantityKind": "EC50", "unitLabel": "µM", "quantitativeResult": 0.01}
{"molecule": "O=C(NCc1ccc2c(c1)OCO2)c1cnc(N2CCCC2)nc1C1(c2ccc(F)cc2)CCCC1", "quantityKind": "EC50", "unitLabel": "µM", "quantitativeResult": 0.214}
{"molecule": "CN1CCC(N(C)c2ncc(C(=O)NCc3ccc(F)cc3F)c(C3(c4ccc(F)cc4)CCCC3)n2)CC1", "quantityKind": "EC50", "unitLabel": "µM", "quantitativeResult": 0.532}
{"molecule": "CC1CCCN(c2ncc(C(=O)NCc3cc(F)cc(C(F)(F)F)c3)c(C3(c4ccc(F)cc4)CCCC3)n2)C1 (stereo not drawn)", "quantityKind": "EC50", "unitLabel": "µM", "quantitativeResult": 0.022}
{"molecule": "CC(NC(=O)c1cnc(N2CCCC2)nc1C1(c2ccc(F)cc2)CCCC1)c1cccc2ccccc12 (stereo not drawn)", "quantityKind": "EC50", "unitLabel": "µM", "quantitativeResult": 0.034}
{"molecule": "CC(NC(=O)c1cnc(N2CCN(C)CC2)nc1C1(c2ccc(F)cc2)CCCC1)c1ccc(F)cc1 (stereo not drawn)", "quantityKind": "EC50", "unitLabel": "µM", "quantitativeResult": 0.752}
{"molecule": "CCC(C)Nc1ncc(C(=O)NCc2ccc3c(c2)OCO3)c(C2(c3ccc(F)cc3)CCCC2)n1 (stereo not drawn)", "quantityKind": "EC50", "unitLabel": "µM", "quantitativeResult": 0.344}
{"molecule": "O=C(NCc1ccc2c(c1)OCO2)c1cnc(NC2CC2)nc1C1(c2ccc(F)cc2)CCCC1", "quantityKind": "EC50", "unitLabel": "µM", "quantitativeResult": 0.436}
{"molecule": "CN(C)CCNc1ncc(C(=O)NCc2ccc(Cl)c(Cl)c2)c(C2(c3ccc(F)cc3)CCCC2)n1", "quantityKind": "EC50", "unitLabel": "µM", "quantitativeResult": 0.904}
{"molecule": "CC1CCN(c2ncc(C(=O)NCc3ccc(Cl)c(Cl)c3)c(C3(c4ccc(F)cc4)CCCC3)n2)CC1", "quantityKind": "EC50", "unitLabel": "µM", "quantitativeResult": 0.01}
{"molecule": "CCC(C)Nc1ncc(C(=O)NC(C)c2cccc3ccccc23)c(C2(c3ccc(F)cc3)CCCC2)n1 (stereo not drawn)", "quantityKind": "EC50", "unitLabel": "µM", "quantitativeResult": 0.177}
{"molecule": "CC(NC(=O)c1cnc(NC2CC2)nc1C1(c2ccc(F)cc2)CCCC1)c1cccc2ccccc12 (stereo not drawn)", "quantityKind": "EC50", "unitLabel": "µM", "quantitativeResult": 0.507}
{"molecule": "CC1CCN(c2ncc(C(=O)NCc3cccc4ccccc34)c(C3(c4ccc(F)cc4)CCCC3)n2)CC1", "quantityKind": "EC50", "unitLabel": "µM", "quantitativeResult": 0.015}
{"molecule": "O=C(NCc1ccc(Cl)cc1Cl)c1cnc(NC2CCCC2)nc1C1(c2ccc(F)cc2)CCCC1", "quantityKind": "EC50", "unitLabel": "µM", "quantitativeResult": 0.027}
{"molecule": "CC1CCCN(c2ncc(C(=O)NC(C)c3cccc4ccccc34)c(C3(c4ccc(F)cc4)CCCC3)n2)C1 (stereo not drawn)", "quantityKind": "EC50", "unitLabel": "µM", "quantitativeResult": 0.01}
{"molecule": "O=C(NCc1ccc(Cl)cc1Cl)c1cnc(NC2CC2)nc1C1(c2ccc(F)cc2)CCCC1", "quantityKind": "EC50", "unitLabel": "µM", "quantitativeResult": 0.869}
{"molecule": "CCC(C)Nc1ncc(C(=O)NC(C)c2ccc(F)cc2)c(C2(c3ccc(F)cc3)CCCC2)n1 (stereo not drawn)", "quantityKind": "EC50", "unitLabel": "µM", "quantitativeResult": 0.852}
{"molecule": "O=C(NCc1cc(F)cc(C(F)(F)F)c1)c1cnc(N2CCCC2)nc1C1(c2ccc(F)cc2)CCCC1", "quantityKind": "EC50", "unitLabel": "µM", "quantitativeResult": 0.024}
{"molecule": "CC1CCC(Nc2ncc(C(=O)NCc3ccc(Cl)cc3Cl)c(C3(c4ccc(F)cc4)CCCC3)n2)CC1 (stereo not drawn)", "quantityKind": "EC50", "unitLabel": "µM", "quantitativeResult": 0.01}
{"molecule": "CC1CCN(c2ncc(C(=O)NCc3cc(F)cc(C(F)(F)F)c3)c(C3(c4ccc(F)cc4)CCCC3)n2)CC1", "quantityKind": "EC50", "unitLabel": "µM", "quantitativeResult": 0.01}
{"molecule": "CC(NC(=O)c1cnc(N2CCN(C)CC2)nc1C1(c2ccc(F)cc2)CCCC1)c1cccc2ccccc12 (stereo not drawn)", "quantityKind": "EC50", "unitLabel": "µM", "quantitativeResult": 0.852}
{"molecule": "CC1CCCN(c2ncc(C(=O)NCc3ccc(Cl)c(Cl)c3)c(C3(c4ccc(F)cc4)CCCC3)n2)C1 (stereo not drawn)", "quantityKind": "EC50", "unitLabel": "µM", "quantitativeResult": 0.01}
{"molecule": "CN1CCN(c2ncc(C(=O)NCc3ccc(Cl)c(Cl)c3)c(C3(c4ccc(F)cc4)CCCC3)n2)CC1", "quantityKind": "EC50", "unitLabel": "µM", "quantitativeResult": 0.529}
{"molecule": "O=C(NCc1ccc(F)cc1F)c1cnc(NC2CCCC2)nc1C1(c2ccc(F)cc2)CCCC1", "quantityKind": "EC50", "unitLabel": "µM", "quantitativeResult": 0.115}
